# tested.system: Protein cereblon/Glycogen synthase kinase-3 alpha (Homo sapiens, UniProt P49840+Q96SW2)
# Sequence (P49840 2-483 limits assumed): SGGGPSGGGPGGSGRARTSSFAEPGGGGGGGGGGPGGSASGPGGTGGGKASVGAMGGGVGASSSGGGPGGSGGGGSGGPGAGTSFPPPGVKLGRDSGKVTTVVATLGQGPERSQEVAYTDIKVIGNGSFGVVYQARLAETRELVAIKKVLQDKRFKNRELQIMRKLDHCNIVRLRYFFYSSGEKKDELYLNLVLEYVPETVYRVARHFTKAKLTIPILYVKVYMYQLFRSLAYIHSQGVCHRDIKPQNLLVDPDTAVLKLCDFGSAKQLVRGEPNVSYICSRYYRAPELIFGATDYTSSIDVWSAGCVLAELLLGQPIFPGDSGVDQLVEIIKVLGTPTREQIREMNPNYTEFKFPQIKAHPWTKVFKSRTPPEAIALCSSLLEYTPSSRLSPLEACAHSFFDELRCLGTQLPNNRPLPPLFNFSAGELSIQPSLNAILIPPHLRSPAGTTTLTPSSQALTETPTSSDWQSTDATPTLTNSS
# Sequence (Q96SW2 whole entry partner): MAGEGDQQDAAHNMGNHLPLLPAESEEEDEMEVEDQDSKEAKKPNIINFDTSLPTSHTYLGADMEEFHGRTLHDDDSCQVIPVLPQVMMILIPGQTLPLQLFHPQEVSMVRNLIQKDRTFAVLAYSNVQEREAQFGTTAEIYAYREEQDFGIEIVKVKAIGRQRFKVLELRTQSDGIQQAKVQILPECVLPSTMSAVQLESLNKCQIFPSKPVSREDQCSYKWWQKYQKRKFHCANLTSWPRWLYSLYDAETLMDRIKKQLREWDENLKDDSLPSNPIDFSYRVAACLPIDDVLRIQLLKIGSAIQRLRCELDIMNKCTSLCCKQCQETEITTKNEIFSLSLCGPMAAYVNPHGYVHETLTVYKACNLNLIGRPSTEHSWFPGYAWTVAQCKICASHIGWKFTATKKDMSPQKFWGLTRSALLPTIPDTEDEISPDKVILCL
# experimental.details: Protac activity at CRBN/GSK3alpha in human SH-SY5Y cells assessed as induction of GSK3alpha degradation at 0.1 uM measured after 24 hrs
# Format: cell-based
readout.kind: Activity (%)

| compound | tested.system | readout.units | reported.value |
| --- | --- | --- | --- |
| Nc1ncc(-c2ccc(S(=O)(=O)N3CCN(CCc4cn(CCOCCOCCOCCOCCOCCOCCNc5cccc6c5C(=O)N(C5CCC(=O)NC5=O)C6=O)nn4)CC3)cc2)nc1C(=O)Nc1cccnc1 (centres undefined) | Protein cereblon/Glycogen synthase kinase-3 alpha (Homo sapiens, UniProt P49840+Q96SW2) | % | 66.3 |
| Nc1ncc(-c2ccc(S(=O)(=O)N3CCN(CCc4cn(CCOCCOCCOCCOCCNc5cccc6c5C(=O)N(C5CCC(=O)NC5=O)C6=O)nn4)CC3)cc2)nc1C(=O)Nc1cccnc1 (centres undefined) | Protein cereblon/Glycogen synthase kinase-3 alpha (Homo sapiens, UniProt P49840+Q96SW2) | % | 63.8 |

(A) Nc1ncc(-c2ccc(S(=O)(=O)N3CCN(CCCCc4cn(CCOCCOCCOCCOCCOCCNc5cccc6c5C(=O)N(C5CCC(=O)NC5=O)C6=O)nn4)CC3)cc2)nc1C(=O)Nc1cccnc1 (centres undefined)
(B) Nc1ncc(-c2ccc(S(=O)(=O)N3CCN(Cc4cn(CCOCCOCCOCCOCCOCCNc5cccc6c5C(=O)N(C5CCC(=O)NC5=O)C6=O)nn4)CC3)cc2)nc1C(=O)Nc1cccnc1 (centres undefined)
Inquiry: Kindly identify the item with the lower Activity figure among these two: A and B Return value: the label identifying the chosen record.
Reply text: B

Attribution: ChEMBL document CHEMBL5038618
